Biological target: Adenosine kinase (Homo sapiens, UniProt P55263)
Sequence (P55263 whole entry): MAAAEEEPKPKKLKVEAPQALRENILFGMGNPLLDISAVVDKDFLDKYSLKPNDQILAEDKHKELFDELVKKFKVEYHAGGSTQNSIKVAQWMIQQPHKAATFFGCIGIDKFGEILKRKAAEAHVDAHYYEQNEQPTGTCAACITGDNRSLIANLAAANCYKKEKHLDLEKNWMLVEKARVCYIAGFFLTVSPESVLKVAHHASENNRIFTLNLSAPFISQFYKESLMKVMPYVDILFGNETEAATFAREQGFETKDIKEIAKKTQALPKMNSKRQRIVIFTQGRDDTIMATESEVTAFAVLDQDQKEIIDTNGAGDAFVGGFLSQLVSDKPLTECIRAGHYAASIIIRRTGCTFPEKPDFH
Assay: Inhibition of recombinant human ADK using [3H]-adenosine as substrate after 20 mins by TLC scanner-based analysis relative to control
pIC50: −log10 of the molar value.
Could you please report measured pIC50 for the items listed next?

stdin: Need pIC50 of OC[C@H]1O[C@@H](n2c3ccoc3c3c(-c4ccoc4)ncnc32)[C@H](O)[C@@H]1O , thanks.
stdout: < 5.00

stdin: Would you kindly repeat that for CSc1ncnc2c1c1ccn(C)c1n2[C@@H]1O[C@H](CO)[C@@H](O)[C@H]1O ?
stdout: < 5.00

stdin: Would you kindly repeat that for Cn1ccc2c1c1c(-c3ccoc3)ncnc1n2[C@@H]1O[C@H](CO)[C@@H](O)[C@H]1O ?
stdout: < 5.00

stdin: Would you kindly repeat that for Cn1ccc2c3c(-c4ccco4)ncnc3n([C@@H]3O[C@H](CO)[C@@H](O)[C@H]3O)c21 ?
stdout: 5.45

stdin: Would you kindly repeat that for COc1ncnc2c1c1ccn(C)c1n2[C@@H]1O[C@H](CO)[C@@H](O)[C@H]1O ?
stdout: < 5.00

stdin: Would you kindly repeat that for Cc1ncnc2c1c1occc1n2[C@@H]1O[C@H](CO)[C@@H](O)[C@H]1O ?
stdout: < 5.00

stdin: Would you kindly repeat that for CN(C)c1ncnc2c1c1occc1n2[C@@H]1O[C@H](CO)[C@@H](O)[C@H]1O ?
stdout: < 5.00
